Taken from PubChem BioAssay AID720554.

- System: acyl-homoserine lactone synthase BmaI1 (Burkholderia mallei ATCC 23344)
- test_protocol: BmaI1 acyl-homoserine lactone synthase inhibition – biochemical, fluorescence intensity, with counterscreen (AID 720554)
- applied_conditions: BmaI1 enzyme assay, concentration not given here
Screen size: about 12,000 compounds; about 45 (0.4%) were called active. Cut-off read from the data, not from the text of the source: active = inhibition mostly above about 83% (no sharp cut-off); inactive = mostly below about 52%. The sample as a whole holds a higher share of actives than the screen did.
Can you answer with just one of these options? active, inactive

1. Fc1ccccc1NC(=S)N/N=C/c1cn(-c2ccccc2)nc1-c1cc2ccccc2o1	inactive

Task: Which outcome did this test record for the molecule Cc1csc(=Nc2ccccc2F)n1/N=C/c1ccncc1 ?
Result: active

Task: Similarly, COc1ccc(C(=O)Nc2ccc(N3CCCCC3)cc2)cc1 ?
Result: inactive

Task: Similarly, O=C(O)c1ccc(NNC(=S)NCC2CCCO2)cc1 (centres undefined) ?
Result: inactive

Task: Similarly, Cn1c(Cc2nnc3n2-c2ccccc2SC3)nc2ccccc21 ?
Result: inactive

Task: Similarly, CC1Cc2ccccc2N1CC(=O)NCc1ccc2c(c1)OCO2 (centres undefined) ?
Result: inactive

* * *

- Tested on: acyl-homoserine lactone synthase BmaI1 (Burkholderia mallei ATCC 23344)
- test_protocol: BmaI1 acyl-homoserine lactone synthase inhibition – biochemical, fluorescence intensity, with counterscreen (AID 720554)
- applied_conditions: BmaI1 enzyme assay, stronger effect = higher value, concentration not given here
Among all 12,000 compounds or so, about 45 (0.4%) were called active. The list comes from a sample in which actives are over-represented; it also holds close analogues and randomly drawn compounds.
Rule: TRUE for inhibition not less than 20%, FALSE for anything less.

1) Cc1ccc2nc(N3CCCC3)nc(-c3ccccc3)c2c1	FALSE
2) COc1cc2c(cc1NC(=O)C(C)Sc1nncn1C)oc1ccccc12 (stereo not drawn)	FALSE
3) FC(F)n1c(=S)[nH]c2ccccc21	FALSE
4) NNc1nc(-c2ccccc2)c2cc(Br)ccc2n1	TRUE
5) O=C(c1cc(-c2ccccc2)nn1-c1ccccc1)N(C1CC1)C1CCS(=O)(=O)C1 (stereo not drawn)	FALSE
6) CN1/C(=C\C=Nc2ccccc2N)C(C)(C)c2ccccc21	FALSE
7) Cc1ccc(Cl)cc1N1CCN(Cn2sc3ccccc3c2=O)CC1	TRUE
8) COc1ccccc1C(=O)CSc1cccc[n+]1[O-]	TRUE
9) COc1ccc(NC(=O)COC(=O)C23CCC(=O)N2c2ccccc2S3)cc1 (stereo not drawn)	FALSE
10) CCn1c(Cn2cc(S(=O)(=O)N3CCCC3)ccc2=O)nc2cc(S(=O)(=O)N(C)C)ccc21	FALSE

Task: Hi team, for Cc1ccc(SCC(=O)NC(=O)C(C)C)cc1C , is the recorded inhibition at or above 20%?
Result: FALSE

Task: Similarly, COc1ccc(Br)cc1CN(C)CN1C(=O)C2CC=CCC2C1=O (stereo not drawn) ?
Result: FALSE

Task: Similarly, Cc1nc2ccc(NC(=O)C3CCCC3)cc2s1 ?
Result: FALSE

Task: Similarly, CC(C)NC(=S)NNc1ncc(C(F)(F)F)cc1Cl ?
Result: TRUE

Task: Similarly, COC(=O)c1c(C)[nH]c(=O)[nH]c1=S ?
Result: FALSE

Task: Similarly, Nc1nc(N)c2nc(-c3ccccc3)c(N)nc2n1 ?
Result: FALSE

Task: Similarly, FC(F)Oc1ccc(NC(=S)NNc2ccc(Cl)nn2)cc1 ?
Result: TRUE

Task: Similarly, CN(C(=O)c1ccco1)C1(c2ccccc2Cl)CCCCC1=O (stereo not drawn) ?
Result: FALSE

Task: Similarly, Cc1ccc(NC(=O)Nc2ccc(N(C)C)cc2)cc1 ?
Result: TRUE

Task: Similarly, CCN(CC)c1ccc(N=CN2CCOCC2)cc1 ?
Result: TRUE

Task: Similarly, Cc1ccc(NC(=O)Nc2ccc3c(c2)C(=O)NC3=O)cc1 ?
Result: FALSE

Task: Similarly, COc1ccc(COC(=O)c2cc(O)c3ccccc3c2O)cc1F ?
Result: TRUE

Task: Similarly, CC(OC(=O)c1ccc(NS(=O)(=O)c2cccs2)cc1)c1nc2scc(-c3cccs3)c2c(=O)[nH]1 (stereo not drawn) ?
Result: FALSE

Task: Similarly, CC(Sc1nnnn1-c1ccc(O)cc1)C(=O)c1ccccc1 (stereo not drawn) ?
Result: FALSE

Task: Similarly, CCOC(=O)C(Sc1n[nH]c(N)n1)c1ccccc1 (stereo not drawn) ?
Result: FALSE

Task: Similarly, COC(=O)COc1ccc2ccc(=O)oc2c1 ?
Result: FALSE
